Hey, just so you know, these numbers are from paper PMC3261944.

- System: MCF-7BUS cells
- ASSAY_INFO: E-screen assay (MCF-7BUS cell proliferation, WST-1)
- Format: cell-based, Human
- MEASUREMENT_CONTEXT: ratio of EC50 of E2 to that of test compound
Measured E-screen Relative potency accompanies every entry in the list below.
ENDPOINT_NAME: E-screen Relative potency

{"SAMPLE_SMILES": "FC(F)(I)C(F)(F)C(F)(F)C(F)(F)C(F)(F)C(F)(F)C(F)(F)C(F)(F)I", "SYSTEM_UNDER_TEST": "MCF-7BUS cells", "MEASURED_VALUE": "7.2 × 10^–5"}
{"SAMPLE_SMILES": "FC(F)(I)C(F)(F)C(F)(F)C(F)(F)C(F)(F)C(F)(F)I", "SYSTEM_UNDER_TEST": "MCF-7BUS cells", "MEASURED_VALUE": "4.2 × 10^–4"}
{"SAMPLE_SMILES": "FC(F)(I)C(F)(F)C(F)(F)C(F)(F)I", "SYSTEM_UNDER_TEST": "MCF-7BUS cells", "MEASURED_VALUE": "2.2 × 10^–6"}
{"SAMPLE_SMILES": "FC(F)(F)C(F)(F)C(F)(F)C(F)(F)C(F)(F)C(F)(F)I", "SYSTEM_UNDER_TEST": "MCF-7BUS cells", "MEASURED_VALUE": "4.9 × 10^–6"}
{"SAMPLE_SMILES": "FC(F)(F)C(F)(F)C(F)(F)C(F)(F)C(F)(F)C(F)(F)C(F)(F)C(F)(F)I", "SYSTEM_UNDER_TEST": "MCF-7BUS cells", "MEASURED_VALUE": "2.7 × 10^–6"}

---

- SYSTEM_UNDER_TEST: ER (Homo sapiens)
- Construct: This cell line was stably transfected with the luciferase reporter gene and estrogen-responsive element derived from the Xenopus vitellogenin A2 gene; endogenous in cells; host or cells: MVLN cells (provided by J.P. Giesy)
- Sequence (P03372 1-595): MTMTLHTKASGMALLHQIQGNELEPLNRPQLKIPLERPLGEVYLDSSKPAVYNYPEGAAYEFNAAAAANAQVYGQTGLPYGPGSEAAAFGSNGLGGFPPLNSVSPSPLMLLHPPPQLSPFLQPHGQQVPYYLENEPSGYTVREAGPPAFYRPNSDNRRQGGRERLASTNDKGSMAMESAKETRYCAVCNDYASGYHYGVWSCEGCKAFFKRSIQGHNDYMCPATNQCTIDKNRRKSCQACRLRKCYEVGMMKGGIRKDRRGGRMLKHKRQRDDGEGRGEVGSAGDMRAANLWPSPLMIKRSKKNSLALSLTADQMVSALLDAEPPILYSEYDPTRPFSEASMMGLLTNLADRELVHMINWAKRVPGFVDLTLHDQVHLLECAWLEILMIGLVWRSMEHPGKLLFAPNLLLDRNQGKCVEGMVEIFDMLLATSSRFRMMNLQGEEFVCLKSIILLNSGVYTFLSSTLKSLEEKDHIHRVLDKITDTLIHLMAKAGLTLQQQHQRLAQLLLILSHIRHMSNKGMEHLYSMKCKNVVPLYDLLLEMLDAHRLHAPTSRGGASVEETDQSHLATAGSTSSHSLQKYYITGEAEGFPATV
- ASSAY_INFO: MVLN assay (estrogen-responsive luciferase reporter transactivation)
- Type: cell-based
- MEASUREMENT_CONTEXT: within the tested concentration ranges
ENDPOINT_NAME: Luciferase induction / estrogenic effect in the MVLN assay (in words)

{"COMPOUND": "CCCCCCI [1-Iodohexane, reference compound]", "MEASURED_VALUE": "negative results"}
{"COMPOUND": "FC(F)(F)C(F)(F)C(F)(F)C(F)(F)C(F)(F)C(F)(F)C(F)(F)C(F)(F)Br [PFOB, 1-bromoperfluorooctane, reference compound]", "MEASURED_VALUE": "negative results"}
{"COMPOUND": "FC(F)C(F)(F)C(F)(F)C(F)(F)C(F)(F)C(F)(F)C(F)(F)C(F)(F)F [PFOC, 1H-perfluorooctane, reference compound]", "MEASURED_VALUE": "negative results"}

---

- System: MCF-7BUS cells
- ASSAY_INFO: E-screen assay (MCF-7BUS cell proliferation, WST-1)
- Type: cell-based, Human
- MEASUREMENT_CONTEXT: within the tested concentration ranges
ENDPOINT_NAME: Proliferation / estrogenic effect in the E-screen assay (in words)

{"MOLECULE": "FC(F)(F)C(F)(F)C(F)(F)C(F)(F)C(F)(F)C(F)(F)C(F)(F)C(F)(F)Br [PFOB, 1-bromoperfluorooctane, reference compound]", "MEASURED_VALUE": "negative results"}
{"MOLECULE": "CCCCCCI [1-Iodohexane, reference compound]", "MEASURED_VALUE": "negative results"}
{"MOLECULE": "FC(F)C(F)(F)C(F)(F)C(F)(F)C(F)(F)C(F)(F)C(F)(F)C(F)(F)F [PFOC, 1H-perfluorooctane, reference compound]", "MEASURED_VALUE": "negative results"}
